This listing pairs binders with measured hCCL1 (100 nM) residual response, Protocol #3, mAb 5 µg/mL.
Target: human CCR8 (human, UniProt P51685 1-355)
Assay: cell-based or functional assay
Just the number please, in %, no unit attached.

Use the examples below as a reference point.
binder="3-82 (antibody, human IgG1, kappa, V domains shown, humanized, human IgG1 kappa) VH: QVQLVESGGGVVQPGRSLRLSCAASGFTFSNYRMHWVRQAPGKGLEWIAVIKVKSDNYGANYADSVKGRFTISRDNSKNTLYLQMNSLRAEDTAVYYCSSPTYPGSSGFAYWGQGTLVTVSS VL: DIQMTQSPSSLSASVGDRVTITCRASQDISNYLNWYQQKPDGTVKLLIYYTSRLHTGVPSRFSGSGSGTDYTLTISNLQQEDIATYFCQQGNKFPPTFGGGTKVEINR" unit_spec=% measured_value=62
binder="3-50 (antibody, V domains shown) VH: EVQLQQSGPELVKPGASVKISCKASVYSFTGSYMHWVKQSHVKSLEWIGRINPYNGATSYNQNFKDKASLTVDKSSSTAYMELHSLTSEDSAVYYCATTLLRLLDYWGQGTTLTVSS VL: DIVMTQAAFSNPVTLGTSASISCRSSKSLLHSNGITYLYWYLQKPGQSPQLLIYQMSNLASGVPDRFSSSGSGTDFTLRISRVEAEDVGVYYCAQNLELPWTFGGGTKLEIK" unit_spec=% measured_value=73
binder="3-79 (antibody, human IgG1, kappa, V domains shown, humanized, human IgG1 kappa) VH: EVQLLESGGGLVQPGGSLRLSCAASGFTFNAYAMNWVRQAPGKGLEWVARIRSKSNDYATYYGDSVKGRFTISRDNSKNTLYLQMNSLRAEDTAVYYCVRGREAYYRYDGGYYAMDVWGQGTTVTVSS VL: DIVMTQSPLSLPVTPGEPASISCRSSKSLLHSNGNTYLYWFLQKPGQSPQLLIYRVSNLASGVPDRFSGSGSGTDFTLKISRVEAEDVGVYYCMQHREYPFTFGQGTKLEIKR" unit_spec=% measured_value=33
binder="3-52 (antibody, V domains shown) VH: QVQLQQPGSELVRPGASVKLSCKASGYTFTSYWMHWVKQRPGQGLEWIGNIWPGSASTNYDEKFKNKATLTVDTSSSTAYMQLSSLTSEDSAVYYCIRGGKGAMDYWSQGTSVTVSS VL: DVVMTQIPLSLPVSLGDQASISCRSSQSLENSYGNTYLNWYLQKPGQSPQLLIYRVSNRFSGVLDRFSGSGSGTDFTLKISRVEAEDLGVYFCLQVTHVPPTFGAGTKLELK" unit_spec=% measured_value=45

Now look at this entry.
Ask: Param item = 3-33 (antibody, V domains shown) VH: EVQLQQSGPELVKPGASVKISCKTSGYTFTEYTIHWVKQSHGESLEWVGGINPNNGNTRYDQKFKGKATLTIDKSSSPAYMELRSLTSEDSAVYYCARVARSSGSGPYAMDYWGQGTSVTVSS VL: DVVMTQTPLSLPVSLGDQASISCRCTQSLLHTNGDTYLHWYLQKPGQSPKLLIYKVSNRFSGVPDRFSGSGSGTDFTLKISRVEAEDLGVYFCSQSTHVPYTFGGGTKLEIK ; retrieve measured hCCL1 (100 nM) residual response, Protocol #3, mAb 5 µg/mL.
Result: 45

The values you see were collected from patent US20260234276A1.
